Target under test: UniProt:P51531
Sequence (P51531 whole entry): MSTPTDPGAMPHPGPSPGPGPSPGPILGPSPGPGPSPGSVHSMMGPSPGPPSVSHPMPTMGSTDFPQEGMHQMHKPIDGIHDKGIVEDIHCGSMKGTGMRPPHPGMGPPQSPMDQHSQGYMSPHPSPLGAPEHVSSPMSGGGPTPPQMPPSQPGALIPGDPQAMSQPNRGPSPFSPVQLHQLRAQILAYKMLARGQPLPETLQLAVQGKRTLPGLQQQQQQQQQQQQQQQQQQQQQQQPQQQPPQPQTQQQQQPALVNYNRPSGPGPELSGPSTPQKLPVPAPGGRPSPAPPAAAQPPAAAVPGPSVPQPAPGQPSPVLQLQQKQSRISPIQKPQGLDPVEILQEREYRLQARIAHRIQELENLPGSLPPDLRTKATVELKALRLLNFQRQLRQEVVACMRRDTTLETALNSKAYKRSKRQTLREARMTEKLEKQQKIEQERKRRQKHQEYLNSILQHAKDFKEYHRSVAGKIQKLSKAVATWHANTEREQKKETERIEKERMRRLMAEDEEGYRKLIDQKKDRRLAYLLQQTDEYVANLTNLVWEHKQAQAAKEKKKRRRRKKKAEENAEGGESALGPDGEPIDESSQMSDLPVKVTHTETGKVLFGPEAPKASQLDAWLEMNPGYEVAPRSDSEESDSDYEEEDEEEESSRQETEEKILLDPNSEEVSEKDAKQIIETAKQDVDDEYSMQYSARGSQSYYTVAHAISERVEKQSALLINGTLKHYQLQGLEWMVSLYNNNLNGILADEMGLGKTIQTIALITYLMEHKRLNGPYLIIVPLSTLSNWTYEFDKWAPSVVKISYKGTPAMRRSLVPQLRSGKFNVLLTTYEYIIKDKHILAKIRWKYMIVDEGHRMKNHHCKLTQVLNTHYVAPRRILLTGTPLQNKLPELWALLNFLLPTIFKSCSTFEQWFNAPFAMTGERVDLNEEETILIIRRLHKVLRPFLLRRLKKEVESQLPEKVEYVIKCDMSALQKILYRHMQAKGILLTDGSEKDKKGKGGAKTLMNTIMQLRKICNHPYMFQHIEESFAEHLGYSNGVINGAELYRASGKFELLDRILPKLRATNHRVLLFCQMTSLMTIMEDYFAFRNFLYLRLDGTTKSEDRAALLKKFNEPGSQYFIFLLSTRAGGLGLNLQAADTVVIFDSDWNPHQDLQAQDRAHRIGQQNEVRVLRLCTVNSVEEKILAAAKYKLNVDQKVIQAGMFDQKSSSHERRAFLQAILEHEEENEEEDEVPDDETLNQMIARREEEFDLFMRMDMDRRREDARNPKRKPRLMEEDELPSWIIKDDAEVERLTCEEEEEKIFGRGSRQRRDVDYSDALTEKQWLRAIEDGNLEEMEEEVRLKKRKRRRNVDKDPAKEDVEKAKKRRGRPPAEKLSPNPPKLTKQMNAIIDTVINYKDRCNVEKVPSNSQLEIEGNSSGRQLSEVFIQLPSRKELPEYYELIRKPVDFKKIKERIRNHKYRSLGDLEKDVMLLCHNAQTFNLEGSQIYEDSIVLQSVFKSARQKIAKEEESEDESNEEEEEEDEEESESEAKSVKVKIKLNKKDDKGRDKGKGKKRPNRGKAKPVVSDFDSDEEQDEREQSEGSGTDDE
Method description: SMARCA2 Western blot degradation in MV4-11 cells
Format: cell-based
Design: SMARCA2/SMARCA4 protein degradation selectivity in MV4-11 cells; endogenous in cells; host or cells: MV4-11
Condition label: MV4-11 cells, 24 h; read-out: SMARCA2 MSD MV411 degradation 24 h: Mean external-Abs DC50
Form field: DC50 (one value per entry).

Compound	DC50
Cc1ncsc1-c1ccc(CNC(=O)[C@@H]2C[C@@H](O)CN2C(=O)[C@@H](NC(=O)[C@H]2CC3(C2)C[C@H](N2CCC(c4ccnc(N5CCN6c7cc(-c8ccccc8O)nnc7NC[C@H]6C5)n4)CC2)C3)C(C)(C)C)cc1 (single isomer, unassigned) [I-27]	1 to 10 nM
C#Cc1ccc(CNC(=O)[C@@H]2C[C@@H](O)CN2C(=O)[C@@H](NC(=O)N2CC3(CC(N4CCC(c5cnc(N6CCc7[nH]c8nnc(-c9ccccc9O)cc8c7[C@@H]6C)nc5)CC4)C3)C2)C(C)(C)C)c(OCCCOC)c1	10 to 100 nM
C#Cc1ccc(CNC(=O)[C@@H]2C[C@@H](O)CN2C(=O)[C@@H](NC(=O)CCCN2CCC(N3CC4(CC(N5CCN6c7cc(-c8ccccc8O)nnc7NC[C@H]6C5)C4)C3)CC2)C(C)(C)C)cc1 (single isomer, unassigned)	10 to 100 nM
C#Cc1ccc(CNC(=O)[C@@H]2C[C@@H](O)CN2C(=O)[C@@H](NC(=O)[C@H]2CCC3(CC2)C[C@H](N2CCC(N4CCC(N5CCN6c7cc(-c8ccccc8O)nnc7NC[C@H]6C5)CC4)CC2)C3)C(C)(C)C)c(F)c1 (stereo partly shown) [I-258]	10 to 100 nM

---

Quick list: Dmax per entry.
Target under test: SMARCA4 (Homo sapiens, UniProt P51532)
Construct: SMARCA2/SMARCA4 protein degradation selectivity in MV4-11 cells; endogenous in cells; host or cells: MV4-11
Sequence (P51532 whole entry): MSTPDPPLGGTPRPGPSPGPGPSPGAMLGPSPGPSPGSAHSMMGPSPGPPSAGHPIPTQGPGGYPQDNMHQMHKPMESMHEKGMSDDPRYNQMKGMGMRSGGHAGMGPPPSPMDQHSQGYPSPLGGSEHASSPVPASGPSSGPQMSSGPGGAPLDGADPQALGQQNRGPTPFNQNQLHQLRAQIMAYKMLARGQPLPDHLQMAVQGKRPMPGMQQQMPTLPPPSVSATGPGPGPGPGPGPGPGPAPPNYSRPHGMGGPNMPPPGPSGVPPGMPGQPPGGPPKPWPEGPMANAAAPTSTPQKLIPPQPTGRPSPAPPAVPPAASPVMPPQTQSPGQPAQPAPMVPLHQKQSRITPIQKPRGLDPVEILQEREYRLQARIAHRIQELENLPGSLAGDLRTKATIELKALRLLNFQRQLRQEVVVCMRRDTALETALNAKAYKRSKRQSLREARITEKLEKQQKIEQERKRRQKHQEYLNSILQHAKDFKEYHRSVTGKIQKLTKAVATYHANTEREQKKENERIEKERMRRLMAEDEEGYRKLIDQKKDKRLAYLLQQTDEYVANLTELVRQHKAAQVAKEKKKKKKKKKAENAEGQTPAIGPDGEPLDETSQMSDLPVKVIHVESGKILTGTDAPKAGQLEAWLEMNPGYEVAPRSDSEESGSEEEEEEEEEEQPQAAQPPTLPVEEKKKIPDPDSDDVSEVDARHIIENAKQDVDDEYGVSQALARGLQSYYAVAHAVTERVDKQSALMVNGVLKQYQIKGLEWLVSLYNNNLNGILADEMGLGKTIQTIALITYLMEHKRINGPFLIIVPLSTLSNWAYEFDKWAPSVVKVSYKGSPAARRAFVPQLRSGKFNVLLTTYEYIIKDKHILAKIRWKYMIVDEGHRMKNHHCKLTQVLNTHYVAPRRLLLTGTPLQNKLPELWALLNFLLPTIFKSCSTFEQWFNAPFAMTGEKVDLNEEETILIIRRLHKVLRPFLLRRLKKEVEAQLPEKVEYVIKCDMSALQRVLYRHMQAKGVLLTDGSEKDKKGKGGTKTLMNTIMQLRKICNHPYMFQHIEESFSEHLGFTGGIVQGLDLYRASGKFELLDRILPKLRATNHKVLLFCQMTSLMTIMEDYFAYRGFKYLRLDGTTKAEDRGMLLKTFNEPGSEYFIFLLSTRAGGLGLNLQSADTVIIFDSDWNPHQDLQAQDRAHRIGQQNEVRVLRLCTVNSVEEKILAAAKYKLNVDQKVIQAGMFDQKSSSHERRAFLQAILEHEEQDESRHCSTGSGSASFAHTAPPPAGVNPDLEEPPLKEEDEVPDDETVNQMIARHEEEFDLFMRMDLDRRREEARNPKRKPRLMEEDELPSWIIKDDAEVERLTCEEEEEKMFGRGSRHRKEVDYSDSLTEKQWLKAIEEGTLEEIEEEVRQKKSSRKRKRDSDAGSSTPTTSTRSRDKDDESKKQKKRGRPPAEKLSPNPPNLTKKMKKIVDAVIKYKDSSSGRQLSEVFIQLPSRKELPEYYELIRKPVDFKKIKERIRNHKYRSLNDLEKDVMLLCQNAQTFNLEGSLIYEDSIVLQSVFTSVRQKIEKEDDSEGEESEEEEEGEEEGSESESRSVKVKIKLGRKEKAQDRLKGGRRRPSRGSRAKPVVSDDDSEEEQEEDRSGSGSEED
Method description: SMARCA4 Western blot degradation in MV4-11 cells
Type: cell-based
Condition label: MV4-11, MV4-11 cells, 24 h; read-out: SMARCA4 MSD MV411 degradation 24 h: average Dmax %
Method: Example 11. SMARCA2 and SMARCA4 Western Blot MV4-11 Degradation Cells were seeded into 6-well plates (MV4-11:4×10^6 cells/well/1 ml) and 1 ml of 2× compound solution was added into the well to make the final concentration and the plates were mixed well and incubated for 24 hours (No cytotoxicity was observed). The cell were collected with media and spun at 3000 rpm for 5 minutes. […] The membrane was washed three times with 5 minutes each and lastly the LiCOR was read. […]
Parameter measured: Dmax

Molecule	Target under test	Measured result
CC(C)C(C(=O)N1C[C@H](O)C[C@H]1C(=O)NCc1ccc(Cl)cc1)c1cc(N2CC3(CC(N4CCC(c5cnc(N6CCN7c8cc(-c9ccccc9O)nnc8NC[C@H]7C6)nc5)CC4)C3)C2)no1 (some centres unmarked)	SMARCA4 (Homo sapiens, UniProt P51532)	< 50%
C#Cc1ccc(CNC(=O)[C@@H]2C[C@@H](O)CN2C(=O)[C@@H](NC(=O)C2CCN(C[C@H]3CC[C@H](N4CCc5[nH]c6nnc(-c7ccccc7O)cc6c5[C@H]4C)CC3)CC2)C(C)(C)C)cc1 (single isomer, unassigned)	SMARCA4 (Homo sapiens, UniProt P51532)	50 to 70%
C#Cc1ccc(CNC(=O)[C@@H]2C[C@@H](O)CN2C(=O)[C@@H](NC(=O)N2CC3(CC(N4CCC(c5cnc(N6CCc7[nH]c8nnc(-c9ccccc9O)cc8c7[C@H]6CC)nc5)CC4)C3)C2)C(C)(C)C)cc1	SMARCA4 (Homo sapiens, UniProt P51532)	70 to 90%
C[C@H](NC(=O)[C@@H]1C[C@@H](O)CN1C(=O)[C@@H](NC(=O)[C@H]1CCC2(CC1)C[C@H](N1CCC(c3cnc(N4CCN5c6cc(-c7ccccc7O)nnc6NC[C@H]5C4)nc3)CC1)C2)C(C)(C)C)c1ccc(-c2ccnn2C)cc1 (single isomer, unassigned)	SMARCA4 (Homo sapiens, UniProt P51532)	> 90%
C#Cc1ccc([C@H](C)NC(=O)[C@@H]2C[C@@H](O)CN2C(=O)[C@@H](NC(=O)N2CC3(CC(N4CCC(c5cnc(N6CCc7[nH]c8nnc(-c9ccccc9O)cc8c7[C@H]6C)cn5)CC4)C3)C2)C(C)(C)C)cc1	SMARCA4 (Homo sapiens, UniProt P51532)	70 to 90%
C#Cc1ccc(CNC(=O)[C@@H]2C[C@@H](O)CN2C(=O)[C@@H](NC(=O)N2CC3(CC(N4C[C@H]5CN(c6cnc(N7CCc8[nH]c9nnc(-c%10ccccc%10O)cc9c8[C@H]7C)nc6)C[C@H]5C4)C3)C2)C(C)(C)C)cc1	SMARCA4 (Homo sapiens, UniProt P51532)	< 50%
Cc1ncsc1-c1ccc(CNC(=O)[C@@H]2C[C@@H](O)CN2C(=O)[C@@H](NC(=O)C2(F)CC2)C(C)(C)C)c(O[C@H]2CC[C@H](N3CCC(c4cnc(N5CCc6[nH]c7nnc(-c8ccccc8O)cc7c6[C@@H]5C)nc4)CC3)CC2)c1 (single isomer, unassigned)	SMARCA4 (Homo sapiens, UniProt P51532)	< 50%
Cc1ncsc1-c1ccc(CNC(=O)[C@@H]2C[C@@H](O)CN2C(=O)[C@@H](NC(=O)[C@H]2CCC3(CC2)C[C@H](N2CCC(c4cnc(N5CCN6c7cc(-c8ccccc8O)nnc7NC[C@H]6C5)nc4)CC2)C3)C(C)(C)C)cc1 (single isomer, unassigned)	SMARCA4 (Homo sapiens, UniProt P51532)	< 50%
